system: Class I HDAC (HDAC 1-3); assay: In vitro HDAC inhibition assay; type: biochemical; settings: read-out: IC50 as Class I HDACi; lowest level over Class I isoforms
pIC50: −log10 of the molar value.
reported_metric: pIC50

The recorded pIC50 for entry CCCCCCCC(=O)SCC/C=C/[C@@H]1CC(=O)NCc2nc(cs2)C2=N[C@@](C)(CS2)C(=O)N[C@@H](C(C)C)C(=O)N1 equals ≤ 8.40
